src = PubChem BioAssay (EPA / NIEHS)

- subject-of-test: Cellular tumor antigen p53 (Homo sapiens)
- experiment-summary: TOX21_p53_BLA_p3_ratio: Tox21 HCT-116 p53 Agonism Beta-lactamase Assay, Ratio, Phase 3 (AID 2283596)
Results filed as inconclusive are left out. The source made the active and inactive calls. Rule for the calls: active = hit-call score of the fitted dose curve at least 0.9, where 1 is the maximum; inconclusive = response in the unintended direction; inactive = score below 0.9.
measured-quantity: AC50

Example compounds with recorded AC50:
{"compound": "CCCCCCCC[Si](OCC)(OCC)OCC", "result": "inactive"}
{"compound": "Oc1ccc2ccccc2c1", "result": "inactive"}
{"compound": "CN(C)C(=O)C1(N2CCCCC2)CCN(CC[C@@]2(c3ccc(Cl)c(Cl)c3)CN(C(=O)c3ccccc3)CCO2)CC1", "result": "82.3 µM (active)"}
{"compound": "CCOC(=O)O[C@H](C)OC(=O)c1ccc2c(c1)cc(C(=O)NC1CCN(C(C)C)CC1)n2Cc1cc(-c2ccc(Cl)s2)on1", "result": "81.9 µM (active)"}
{"compound": "CC(O)CC(C)(C)O (stereo unspecified)", "result": "inactive"}

Sample `NCc1cccc(C2CCN(C(=O)c3ccc(C#Cc4ccccc4F)o3)CC2)c1` — what was its AC50?
86.8 µM (active)
